Tgt: T1, VEZF1-3xFlag (Homo sapiens, UniProt Q14119 1-521)
T1 sequence: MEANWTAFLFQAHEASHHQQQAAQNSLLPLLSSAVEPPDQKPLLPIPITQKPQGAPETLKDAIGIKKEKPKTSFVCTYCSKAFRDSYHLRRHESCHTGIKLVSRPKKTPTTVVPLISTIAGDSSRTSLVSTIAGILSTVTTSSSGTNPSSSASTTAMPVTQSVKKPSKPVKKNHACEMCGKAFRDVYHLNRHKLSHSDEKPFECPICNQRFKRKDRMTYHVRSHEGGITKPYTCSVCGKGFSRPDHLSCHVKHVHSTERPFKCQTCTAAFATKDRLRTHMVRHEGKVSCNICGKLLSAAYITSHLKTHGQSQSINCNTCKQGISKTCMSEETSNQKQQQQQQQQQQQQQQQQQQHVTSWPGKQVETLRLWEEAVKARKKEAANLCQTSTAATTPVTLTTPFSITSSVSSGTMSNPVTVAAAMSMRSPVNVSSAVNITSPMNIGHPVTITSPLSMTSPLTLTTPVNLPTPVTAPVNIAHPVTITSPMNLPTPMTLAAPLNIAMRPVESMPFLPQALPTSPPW
Procedure Text: EMSA; 100 mM K+, 10 uM Zn2+; EMSA: 25 nM DNA, 10 mM Tris-HCl pH 7.5, 100 mM KCl, 10 uM ZnCl2, 1 mM DTT, 3% glycerol, on ice 30 min; 6% PAGE in TBE pH 8.3, 4 C
Reported Conditions: protein: recombinant; tags: C-terminal 3xFlag; label: 5'-TAMRA; single strand
Measured Property: Kd (nM)
Value expressed in nM; do not type the unit.

Would you mind telling me what Kd value was observed for AAAGGGTTAGTGTTAGTGTTAGGGAA (ssDNA) [hTEL M4] ?
1640

Ref: paper PMC7708047
